Assay: NCI Yeast Anticancer Drug Screen. Data for the cln2 rad14 strain (AID 165);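 further: 0% = growth equal to vehicle treated cultures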
Settings: S. cerevisiae cln2 rad14 strain, at 50.0 µM, active compounds read high
Protocol: Growth inhibition of yeast strains with defined genetic alterations is measured as a screen for potential anti-cancer activity. Selected strains with alterations in DNA damage repair or cell cycle control were exposed to compounds and growth inhibition was measured relative to vehicle treated controls. The strain used in this assay is cln2 rad14
About 79,000 compounds went through this panel and 15% of them were active in at least one assay; those are over-represented in the sample as a whole.
Here the recorded growth inhibition is given for each entry.
Supply the numeric figure in %, leaving out any unit text.

Past entries and their recorded results:
{"columns": ["Molecule", "Reported Measurement"],
 "data": [
  ["CCOC(=O)c1ccc2c3c([nH]c2c1C)-c1ccccc1CC3", 90.7],
  ["Cc1cc(C)c(C(=O)C(Br)C(Br)c2ccccc2)c(C)c1 (stereo unspecified)", 83.4],
  ["O=C(OC12CCCCC1CCCC2)c1ccc([N+](=O)[O-])cc1 (stereo unspecified)", 99.5]
]}

## Task # query: growth inhibition of entry Cc1ccc2nc(C[n+]3cccc4ccccc43)ccc2c1
## Result 99

## Task # query: growth inhibition of entry CCc1cccc(CC)c1NC(=O)CS
## Result 95.8

## Task # query: growth inhibition of entry CC(=O)OC1COC(n2nnc(C#N)c2C#N)C(OC(C)=O)C1OC(C)=O (stereo unspecified)
## Result 83

---

Experiment: NCI Yeast Anticancer Drug Screen. Data for the mlh1 rad18 strain (AID 175)
Details: S. cerevisiae mlh1 rad18 strain growth inhibition; at 50.0 µM; active compounds read high
About 79,000 compounds went through this panel and 15% of them were active in at least one assay; those are over-represented in the sample as a whole.
The threshold is inclusive: growth inhibition of exactly 60% counts as class 1; values below receive class 0.

Before answering, review these 6 worked examples.
{"columns": ["Molecule", "Classification"],
 "data": [
  ["COc1cc2c(cc1O)CCCCC2", "class 0"],
  ["Oc1ccc(Cc2cccc(Br)c2)c(O)c1", "class 1"],
  ["COc1ccc(/C(=C/CN2CCC3CCC(C3)C2)c2ccccc2)cc1 (stereo not given)", "class 0"],
  ["O=C1C=CC(=O)N1c1ccc(Cl)cc1Br", "class 1"],
  ["Oc1c(Cl)cccc1-c1ccccc1", "class 1"],
  ["O=C(c1ccc(O)cc1)c1ccccc1O", "class 0"]
]}

## Task Is the recorded value of growth inhibition equal to or greater than 60% for this molecule? Cc1ccc(CN2CC(=O)N3Cc4ccccc4CN3C(=O)C2)cc1
## Result class 0

## Task Is the recorded value of growth inhibition equal to or greater than 60% for this molecule? NNC(=O)C(=O)N/N=C(/CCC(=O)NCCc1ccccc1)CC(=O)c1ccccc1
## Result class 0

## Task Is the recorded value of growth inhibition equal to or greater than 60% for this molecule? COc1ccc(-c2nc(N)n(C)c2SSc2c(-c3ccc(OC)cc3)nc(N)n2C)cc1
## Result class 0

## Task Is the recorded value of growth inhibition equal to or greater than 60% for this molecule? O=C1C(=O)N(c2ccccc2)N=C1N=Nc1ccccc1
## Result class 0

## Task Is the recorded value of growth inhibition equal to or greater than 60% for this molecule? COC(=O)c1ccc(SCC(=O)c2ccc([N+](=O)[O-])o2)cc1
## Result class 1

## Task Is the recorded value of growth inhibition equal to or greater than 60% for this molecule? N#CCc1ccc2c(c1)Sc1ccccc1O2
## Result class 1

Origin of measurements: PubChem BioAssay (NCI)
